Data provenance is PubChem BioAssay.

target-entity: Guanine nucleotide-binding protein G(o) subunit alpha (Homo sapiens) (UniProt P09471)
Sequence (P09471 whole entry, looked up): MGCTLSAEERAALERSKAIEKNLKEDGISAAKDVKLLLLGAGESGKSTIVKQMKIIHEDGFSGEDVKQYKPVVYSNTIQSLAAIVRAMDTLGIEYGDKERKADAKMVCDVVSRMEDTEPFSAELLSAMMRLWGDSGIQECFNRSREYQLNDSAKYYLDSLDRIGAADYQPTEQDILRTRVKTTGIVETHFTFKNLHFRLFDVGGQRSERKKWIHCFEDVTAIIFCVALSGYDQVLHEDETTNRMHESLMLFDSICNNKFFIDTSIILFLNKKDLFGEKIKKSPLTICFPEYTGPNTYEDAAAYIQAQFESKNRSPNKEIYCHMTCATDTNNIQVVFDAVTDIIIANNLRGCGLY
test-method-notes: retest of RGS8-Galphao interaction hits – biochemical, multiplexed bead flow cytometry, single concentration, confirmation (AID 1836);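 also: Galphao activated as GDP AlF4 complex before binding bead RGS8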
condition: bead-based flow cytometry RGS8-Galphao binding, fluorescence; at 10 µM; actives lie on both sides
This is one part of the list. Active and inactive are the calls of the source. Rule as the data show it: active = binding response below about 72% or above about 130%; inactive = in between.
I'd appreciate it if you could supply binding response (% of control) values for the items below.

The following compounds have reported results that may help.
COc1ccc(-c2nn(-c3ccccc3)cc2C(=O)Nc2nccs2)cc1OC : 102% (inactive)
COc1ccc(CCC(=O)OCC(=O)Nc2ccc(C)c(S(=O)(=O)N(C)C)c2)cc1 : 104% (inactive)
C=CCn1c(=NC(=O)c2cccs2)sc2cc(NC(C)=O)ccc21 : 103% (inactive)

Req: Recorded binding response (% of control) of COc1ccccc1CCNC(=O)CSc1nnc2ccc(-c3cccnc3)nn12 , please.
Resp: 100% (inactive)

###

test-method-notes: reduced mouse 2C T cell binding to pMHC/ICAM-1 vesicles – MLPCN validation set, flow cytometry, LFA-1/ICAM-1 modulator project, pilot screen (AID 2523);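 also: mean PE anti-B7-1 fluorescence of CD8+ cells relative to row control; 100% = QL9-loaded vesicles with DMSO vehicle in the same plate row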
condition: 2C mouse CD8+ T cells, at 7 µM, hits give low values
I'd appreciate it if you could supply vesicle binding response values for the items below.
Numbers only, in %.

CN(C)CCC=C1c2ccccc2CCc2ccccc21 : 227
CCCCOc1ccc(CC(=O)NO)cc1 : 214
C[C@H]1C[C@@H]2[C@H]([C@@H](O)C[C@@]3(C)[C@H]2CC[C@]3(O)C(=O)CO)[C@@]2(C)C=CC(=O)C=C12 : 227
Fc1ccc(-n2cc(CNCCc3ccccn3)c(-c3ccccc3Cl)n2)cc1 : 91.8

Req: Recorded vesicle binding response of O=C(CS(=O)(=O)c1ccccc1)c1ccc2c(c1)OCCO2 , please.
Resp: 194

###

test-method-notes: Nile Red efflux blockade in pump-expressing yeast – validation compound set, multiplex, phenotypic, pilot screen (AID 588506);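 also: Nile Red retained in cells so higher fluorescence means more efflux inhibition; 0 = negative control wells and 1 = enniatin B 25 µM full block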
condition: S. cerevisiae pump-expressing triplex, Nile Red efflux flow cytometry; at 10 µM; hits give high values; the pumps come from Candida albicans
metric: efflux inhibition (fraction of control)
Numbers only.

CN1CCCN=C1COC(=O)C(O)(c1ccccc1)C1CCCCC1 (centres undefined) : -0.14
CC(C)(C)NCC(O)COc1cccc2c1C[C@H](O)[C@H](O)C2 (some centres undefined) : 0.05
Cc1ccc(S(=O)(=O)NC(C(=O)Oc2ccc3c(C(F)(F)F)cc(=O)oc3c2)c2ccccc2)cc1 (centres undefined) : 0.12
Cc1ccc(OCc2nc(-c3cccnc3)no2)cc1C : 0.27
CC1(C)CC(C(CC(=O)N2CCCC2)Cc2ccccc2)CCO1 (centres undefined) : 0.36

Provide each entry's efflux inhibition (fraction of control) from the list below.
1. COc1cc(C(=O)N/C(=C\c2cn(C)c3ccccc23)C(=O)NCCCO)cc(OC)c1OC
2. COc1ccc(C2OC[C@H]3O[C@H](O)[C@H](NC(C)=O)[C@@H](O)[C@@H]3O2)cc1 (some centres undefined)
3. c1cc(-c2ccncc2)ccn1
4. Cc1ccsc1/C=C/C1=NCCCN1C
5. COc1cccc(OCc2nnc(-c3cccs3)o2)c1
6. Cc1ccc(C(=O)COC(=O)c2cnccn2)cc1[N+](=O)[O-]
7. Cc1nc(NC(CC(C)C)C(=O)O)c2nc(C)oc2n1 (centres undefined)
8. O=C(Nc1ccc(F)c([N+](=O)[O-])c1)c1ccc2c(c1)OCCO2

Resp:
1: 0.3; 2: -0.04; 3: -0.28; 4: -0.135; 5: 0.08; 6: 0.01; 7: -0.13; 8: -0.01

Req: Recorded efflux inhibition (fraction of control) of O=[N+]([O-])c1cccc2cn[nH]c12 , please.
Resp: 0.3
